molecular target: Beta-secretase 2 (Homo sapiens)
Sequence (Q9Y5Z0 whole entry): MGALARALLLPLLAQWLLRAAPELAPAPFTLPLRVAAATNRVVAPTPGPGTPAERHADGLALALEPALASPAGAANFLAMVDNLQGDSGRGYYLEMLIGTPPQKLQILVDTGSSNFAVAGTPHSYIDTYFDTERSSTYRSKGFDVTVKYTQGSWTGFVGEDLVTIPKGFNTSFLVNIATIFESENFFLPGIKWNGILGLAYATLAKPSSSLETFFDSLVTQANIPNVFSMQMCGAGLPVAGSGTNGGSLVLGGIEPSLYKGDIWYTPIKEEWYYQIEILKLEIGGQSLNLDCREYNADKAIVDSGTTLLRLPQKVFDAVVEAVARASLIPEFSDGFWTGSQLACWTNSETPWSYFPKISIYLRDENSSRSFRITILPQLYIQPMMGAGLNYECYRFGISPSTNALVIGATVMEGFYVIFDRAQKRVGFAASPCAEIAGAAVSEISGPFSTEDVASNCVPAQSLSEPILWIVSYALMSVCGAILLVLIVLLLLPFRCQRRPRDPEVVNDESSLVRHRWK
Property Label: Ki (nM)
Quick reminder: number only, in nM, skip the unit.

State the recorded Ki for this entry: `CSC[C@H](NC(=O)OCn1nc(C)cc1C)C(=O)N[C@@H](CC(C)C)[C@@H](O)C[C@@H](C)C(=O)N[C@H](C(=O)NCC(C)C)C(C)C`
161

====

Recorded pKi, one value per entry.
target: Beta-secretase 1 (Homo sapiens); test: Enzyme Inhibition Measurements; settings: pH 4.5; 37 °C
Sequence (P56817 whole entry): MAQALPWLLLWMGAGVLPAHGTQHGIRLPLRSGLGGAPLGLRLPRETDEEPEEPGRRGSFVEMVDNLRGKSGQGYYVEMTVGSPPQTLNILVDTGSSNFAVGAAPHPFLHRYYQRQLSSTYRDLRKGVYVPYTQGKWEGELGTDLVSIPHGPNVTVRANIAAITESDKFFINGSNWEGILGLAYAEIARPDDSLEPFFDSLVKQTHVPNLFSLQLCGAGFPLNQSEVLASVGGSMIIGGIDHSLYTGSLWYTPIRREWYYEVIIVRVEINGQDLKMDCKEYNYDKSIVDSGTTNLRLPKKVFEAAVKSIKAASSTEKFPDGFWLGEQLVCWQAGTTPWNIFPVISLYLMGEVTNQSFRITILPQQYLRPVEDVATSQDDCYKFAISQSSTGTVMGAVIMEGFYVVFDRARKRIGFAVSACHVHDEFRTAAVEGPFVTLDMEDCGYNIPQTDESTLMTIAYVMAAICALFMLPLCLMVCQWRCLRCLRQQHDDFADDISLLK
In plain terms, pKi is the concentration in mol/L turned into minus its base-10 logarithm.

Worked cases, pKi given:
CSCC[C@H](NC(=O)OCn1nc(C)cc1C)C(=O)N[C@@H](CC(C)C)[C@@H](O)C[C@@H](C)C(=O)N[C@H](C(=O)NCc1ccccc1)C(C)C; 7.85
CSC[C@H](NC(=O)OCn1nc(C)cc1C)C(=O)N[C@@H](CC(C)C)[C@@H](O)C[C@@H](C)C(=O)N[C@H](C(=O)NCC(C)C)C(C)C; 8.36

State the recorded pKi for this entry: `Cc1nc(COC(=O)N[C@@H](CS(C)(=O)=O)C(=O)N[C@@H](CC(C)C)[C@@H](O)C[C@@H](C)C(=O)N[C@H](C(=O)NCC(C)C)C(C)C)c(C)o1`
9.92

====

Dear all, this message contains Ki results, target or system Cathepsin D (Homo sapiens).
Quick reminder: number only, in nM, skip the unit.

CSCC[C@H](NC(=O)OCn1nc(C)cc1C)C(=O)N[C@@H](CC(C)C)[C@@H](O)C[C@@H](C)C(=O)N[C@H](C(=O)NCc1ccccc1)C(C)C; 25

Consider now this further compound.
What Ki appears in the records for this compound with Cathepsin D (Homo sapiens)? `CSC[C@H](NC(=O)OCn1nc(C)cc1C)C(=O)N[C@@H](CC(C)C)[C@@H](O)C[C@@H](C)C(=O)N[C@H](C(=O)NCC(C)C)C(C)C`
Sequence (P07339 65-162 limits assumed): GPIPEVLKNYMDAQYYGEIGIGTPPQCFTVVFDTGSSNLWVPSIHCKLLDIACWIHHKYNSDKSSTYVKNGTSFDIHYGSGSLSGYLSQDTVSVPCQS
Sequence (P07339 169-412 limits assumed): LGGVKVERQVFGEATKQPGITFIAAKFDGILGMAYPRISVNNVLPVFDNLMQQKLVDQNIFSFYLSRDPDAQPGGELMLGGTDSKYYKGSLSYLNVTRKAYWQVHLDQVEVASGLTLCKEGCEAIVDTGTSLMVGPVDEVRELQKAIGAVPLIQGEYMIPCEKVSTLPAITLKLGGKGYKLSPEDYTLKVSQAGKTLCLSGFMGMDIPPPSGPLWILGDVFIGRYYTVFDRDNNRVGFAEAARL
15
